# System: OVCAR-3
# TEST_DETAILS: Cytotoxicity against human OVCAR-3 cells assessed as inhibition of cell proliferation measured after 72 hrs by CellTiter 96 AQueous One Solution Cell Proliferation assay
# Assay type: functional, cell-based
# PROTOCOL_CONDITIONS: OVCAR-3, 72 h
Quick reference for pIC50 among some molecules
// pIC50: -log10(molar conc.)

>>> readout_number("CC[C@@]12SS[C@]3(C(=O)N1C)[C@@H](O)[C@]1([C@@]45c6ccccc6N[C@@H]4N4C(=O)[C@]6(CC)SS[C@]4(C(=O)N6C)[C@H]5OC(=O)NC)c4ccccc4N[C@@H]1N3C2=O")
7.17

Name the recorded pIC50 for CC[C@@]12SS[C@]3(C(=O)N1C)[C@@H](O)[C@]1([C@@]45c6ccccc6N[C@@H]4N4C(=O)[C@]6(CC)SS[C@]4(C(=O)N6C)[C@H]5OC(C)=O)c4ccccc4N[C@@H]1N3C2=O .
7.02

Name the recorded pIC50 for CN1C(=O)[C@]23SS[C@@]1(C)C(=O)N2[C@H]1Nc2ccccc2[C@@]1([C@@]12c4ccccc4N[C@@H]1N1C(=O)[C@]4(C)SS[C@]1(C(=O)N4C)[C@H]2O)[C@@H]3O .
7.44

Name the recorded pIC50 for CN1C(=O)[C@]23SS[C@@]1(C)C(=O)N2[C@H]1Nc2ccccc2[C@@]1([C@@]12c4ccccc4N[C@@H]1N1C(=O)[C@]4(C)SS[C@]1(C(=O)N4C)[C@H]2OC(=O)CCC(=O)O)[C@@H]3O .
7.48

Name the recorded pIC50 for CCCC(=O)O[C@H]1[C@]2([C@@]34c5ccccc5N[C@@H]3N3C(=O)[C@]5(CC)SS[C@]3(C(=O)N5C)[C@H]4O)c3ccccc3N[C@@H]2N2C(=O)[C@]3(CC)SS[C@]12C(=O)N3C .
7.60
